A collection of molecules and their measured Max response
System tested: Alpha-1D adrenergic receptor (Homo sapiens) (UniProt P25100)
Sequence (P25100 whole entry): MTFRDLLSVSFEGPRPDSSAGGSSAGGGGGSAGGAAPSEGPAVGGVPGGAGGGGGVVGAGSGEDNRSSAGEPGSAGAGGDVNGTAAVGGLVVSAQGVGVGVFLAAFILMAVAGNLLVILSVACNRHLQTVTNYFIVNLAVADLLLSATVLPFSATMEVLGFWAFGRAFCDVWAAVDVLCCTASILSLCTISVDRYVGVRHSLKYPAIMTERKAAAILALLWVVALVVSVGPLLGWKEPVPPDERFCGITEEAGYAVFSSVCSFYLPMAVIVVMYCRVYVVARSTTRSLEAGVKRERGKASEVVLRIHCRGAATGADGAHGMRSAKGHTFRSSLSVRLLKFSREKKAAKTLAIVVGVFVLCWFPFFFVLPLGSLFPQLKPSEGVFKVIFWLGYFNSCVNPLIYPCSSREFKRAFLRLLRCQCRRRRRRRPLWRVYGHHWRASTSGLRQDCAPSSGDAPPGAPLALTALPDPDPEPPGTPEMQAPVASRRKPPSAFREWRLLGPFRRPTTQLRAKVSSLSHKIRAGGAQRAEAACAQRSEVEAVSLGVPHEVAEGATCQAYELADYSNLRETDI
Assay method text: Maximal response via calcium mobilization towards Human Alpha-1D adrenergic receptor as percent relative to […] phenylephrine
Format: functional
Give your result in % as a bare value.

1. Cn1nccc1-c1ccccc1NCC1=NCCN1 : 0

[in] Given the entry Cn1ccnc1-c1ccccc1NCC1=NCCN1 , report its measured Max response.
[out] 92

[in] What value of Max response has been recorded for this entry: Cn1cc(-c2ccccc2NCC2=NCCN2)cn1
[out] 0

[in] Could you tell me which Max response is on file for Cn1ccc(-c2ccccc2NCC2=NCCN2)n1 ?
[out] 29

[in] Which Max response value is on record for FC(F)(F)Cn1nccc1-c1ccccc1NCC1=NCCN1 ?
[out] 0

[in] Any idea what its Max response is? The molecule is CCCn1nccc1-c1ccccc1NCC1=NCCN1
[out] 0

* * *

System tested: UniProt P35368
Sequence (whole entry): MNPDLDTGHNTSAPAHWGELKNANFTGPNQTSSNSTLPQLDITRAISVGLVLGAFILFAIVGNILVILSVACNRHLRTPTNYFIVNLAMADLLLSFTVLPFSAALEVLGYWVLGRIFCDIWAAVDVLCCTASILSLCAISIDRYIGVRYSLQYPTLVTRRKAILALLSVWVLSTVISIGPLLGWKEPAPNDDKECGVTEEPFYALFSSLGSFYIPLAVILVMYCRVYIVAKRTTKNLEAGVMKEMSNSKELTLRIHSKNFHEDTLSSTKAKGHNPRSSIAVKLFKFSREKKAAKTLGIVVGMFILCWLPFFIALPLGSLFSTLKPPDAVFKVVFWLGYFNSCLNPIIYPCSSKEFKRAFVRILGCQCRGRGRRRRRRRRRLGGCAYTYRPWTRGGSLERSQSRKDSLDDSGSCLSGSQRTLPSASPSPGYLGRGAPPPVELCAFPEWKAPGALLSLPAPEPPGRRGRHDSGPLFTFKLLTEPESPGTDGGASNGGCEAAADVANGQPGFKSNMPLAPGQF
Assay method text: Maximal response assayed via calcium mobilization to human alpha-1B adrenergic receptor compared to percent of the […] phenylephrine response.
Format: functional
Assay endpoint: Max response (%)
Express your answer in %, writing the number without its unit.

A selection of reference data follows.
1. CCn1ncnc1-c1ccccc1NCC1=NCCN1 : 94
2. CCn1cc(-c2ccccc2NCC2=NCCN2)cn1 : 0

[in] // fetch UniProt P35368 Max response for c1ccc(-c2nc[nH]n2)c(NCC2=NCCN2)c1
[out] 100

[in] # returns recorded Max response (system: UniProt P35368) for CC(C)n1ncnc1-c1ccccc1NCC1=NCCN1
[out] 0

[in] Any idea what Max response came out for CCn1nccc1-c1ccccc1NCC1=NCCN1 on UniProt P35368?
[out] 0

[in] Find Max response (UniProt P35368) for the entry Cn1cccc1-c1ccccc1NCC1=NCCN1
[out] 0

[in] API: value(readout=Max response, system=UniProt P35368) for record Cn1nccc1-c1ccccc1NCC1=NCCN1
[out] 0

[in] Lab note: need Max response with UniProt P35368 for entry c1ccc(-c2cn[nH]c2)c(NCC2=NCCN2)c1 , please look it up.
[out] 72

[in] Given the entry CCCn1ncnc1-c1ccccc1NCC1=NCCN1 , what Max response was observed with UniProt P35368?
[out] 74

[in] Lookup: Max response / UniProt P35368 / Cc1ccc(-c2ccccc2NCC2=NCCN2)n1C
[out] 0

[in] What is its Max response for UniProt P35368? Entry: Cn1ccnc1-c1ccccc1NCC1=NCCN1
[out] 104

* * *

System tested: Alpha-1A adrenergic receptor (Homo sapiens)
Sequence (P35348 whole entry): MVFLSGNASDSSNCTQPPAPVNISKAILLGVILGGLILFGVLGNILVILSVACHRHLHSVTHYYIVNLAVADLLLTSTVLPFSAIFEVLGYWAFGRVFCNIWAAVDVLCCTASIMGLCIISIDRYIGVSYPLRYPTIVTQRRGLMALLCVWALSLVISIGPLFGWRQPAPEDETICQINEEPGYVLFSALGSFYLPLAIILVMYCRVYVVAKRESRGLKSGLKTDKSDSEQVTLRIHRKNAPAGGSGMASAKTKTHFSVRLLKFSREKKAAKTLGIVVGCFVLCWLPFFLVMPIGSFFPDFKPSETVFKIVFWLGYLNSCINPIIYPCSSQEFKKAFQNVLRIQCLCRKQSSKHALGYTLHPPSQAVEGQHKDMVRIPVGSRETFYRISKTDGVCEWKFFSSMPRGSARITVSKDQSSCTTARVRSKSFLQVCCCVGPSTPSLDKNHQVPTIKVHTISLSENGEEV
Assay method text: Agonism of human alpha-1A adrenergic receptor expressed in rat 1 fibroblast cells
Assay endpoint: pEC50
Here pEC50 is given on a logarithmic scale as minus log10 of the concentration in mol/L.

1. Cn1nccc1-c1ccccc1NCC1=NCCN1 : 8.00
2. c1ccc(-c2nc[nH]n2)c(NCC2=NCCN2)c1 : 9.10
3. Cn1cc(-c2ccccc2NCC2=NCCN2)cn1 : 6.40

[in] Find the recorded pEC50 belonging to CCn1ccc(-c2ccccc2NCC2=NCCN2)n1 and report it.
[out] 7.60

[in] Item under review: FC(F)(F)Cn1nccc1-c1ccccc1NCC1=NCCN1 . Reported pEC50?
[out] 6.50

* * *

EC50 values for the molecules below.
System tested: Alpha-1B adrenergic receptor (Homo sapiens, UniProt P35368)
Assay method text: Agonism of human alpha-1B adrenergic receptor, expressed in rat 1 fibroblast cells

Some molecules with known EC50 results, for comparison:
1. CCCCn1ncnc1-c1ccccc1NCC1=NCCN1 : 200 nM
2. FC(F)(F)Cn1nccc1-c1ccccc1NCC1=NCCN1 : > 100000 nM

[in] Which EC50 value belongs to CCn1cc(-c2ccccc2NCC2=NCCN2)cn1 ?
[out] > 100000 nM

[in] Quick check: EC50 of Cc1ccc(-c2ccccc2NCC2=NCCN2)n1C ?
[out] > 100000 nM

[in] Suppose we examine the molecule c1ccc(-c2nc[nH]n2)c(NCC2=NCCN2)c1 ; what EC50 value has been reported?
[out] 5.01 nM

[in] Return reported EC50; argument: Cn1cccc1-c1ccccc1NCC1=NCCN1
[out] > 100000 nM

[in] If you can, please state the reported EC50 value of CCCn1nccc1-c1ccccc1NCC1=NCCN1 .
[out] > 100000 nM

[in] Looking for the measured EC50 of CCn1nccc1-c1ccccc1NCC1=NCCN1 , can you help?
[out] > 100000 nM

[in] So what's the measured EC50 for this one? Cn1ccc(-c2ccccc2NCC2=NCCN2)n1
[out] 50.1 nM

[in] Return reported EC50; argument: CCn1ccc(-c2ccccc2NCC2=NCCN2)n1
[out] > 100000 nM

[in] Which EC50 value belongs to FC(F)(F)Cn1ncnc1-c1ccccc1NCC1=NCCN1 ?
[out] > 100000 nM

[in] Recorded EC50 of c1ccc(-c2cc[nH]n2)c(NCC2=NCCN2)c1 , please.
[out] 5.01 nM

[in] Reported EC50, molecule CCCn1ncnc1-c1ccccc1NCC1=NCCN1 : ____
[out] 316 nM

* * *

System tested: Alpha-1B adrenergic receptor (Homo sapiens) (UniProt P35368)
Sequence (whole entry): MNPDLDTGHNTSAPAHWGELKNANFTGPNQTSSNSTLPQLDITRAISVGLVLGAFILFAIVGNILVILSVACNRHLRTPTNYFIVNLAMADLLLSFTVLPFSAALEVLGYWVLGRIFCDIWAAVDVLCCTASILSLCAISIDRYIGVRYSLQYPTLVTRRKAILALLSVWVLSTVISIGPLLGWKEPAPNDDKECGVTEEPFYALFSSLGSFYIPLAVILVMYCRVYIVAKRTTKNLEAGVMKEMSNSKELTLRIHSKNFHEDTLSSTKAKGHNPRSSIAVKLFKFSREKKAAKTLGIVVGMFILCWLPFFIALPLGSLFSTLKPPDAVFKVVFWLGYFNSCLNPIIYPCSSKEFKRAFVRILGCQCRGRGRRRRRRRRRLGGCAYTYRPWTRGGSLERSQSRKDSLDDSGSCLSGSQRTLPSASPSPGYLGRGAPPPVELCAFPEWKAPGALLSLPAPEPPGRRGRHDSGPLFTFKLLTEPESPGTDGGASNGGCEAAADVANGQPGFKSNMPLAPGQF
Assay method text: Maximal response assayed via calcium mobilization to human alpha-1B adrenergic receptor compared to percent of the […] phenylephrine response.
Type: functional
Recorded measurements of Max response, one per entry
Respond with the bare value in %.

Take a look at these entries with their results.
1) CCCCn1ncnc1-c1ccccc1NCC1=NCCN1 : 83
2) Cn1cc(-c2ccccc2NCC2=NCCN2)cn1 : 0
3) FC(F)(F)Cn1nccc1-c1ccccc1NCC1=NCCN1 : 0
4) CC(C)n1nccc1-c1ccccc1NCC1=NCCN1 : 0
5) FC(F)(F)Cn1ncnc1-c1ccccc1NCC1=NCCN1 : 0

[in] Quick one: Max response for Cn1ncnc1-c1ccccc1NCC1=NCCN1 ?
[out] 93

[in] Please give the measured Max response for this compound: CCn1ccc(-c2ccccc2NCC2=NCCN2)n1
[out] 0

[in] Name the reported Max response value associated with the compound Cc1n[nH]c(-c2ccccc2NCC2=NCCN2)n1
[out] 0

[in] Give its Max response value. Item: Cc1nc(-c2ccccc2NCC2=NCCN2)n(C)n1
[out] 0

[in] Data request, read-out Max response, for CCCn1nccc1-c1ccccc1NCC1=NCCN1
[out] 0

[in] Item CCn1cccc1-c1ccccc1NCC1=NCCN1 has what recorded Max response?
[out] 0

[in] Quick check: Max response of Cn1ccc(-c2ccccc2NCC2=NCCN2)n1 ?
[out] 33

[in] Fill blank: measured Max response of the compound c1ccc(-c2cc[nH]n2)c(NCC2=NCCN2)c1 is ____.
[out] 95
